Source listed as PubChem BioAssay (EPA / NIEHS).

# Read-out: Monokine induced gamma interferon (MIG), CXCL9 (gene 4283)
# ASSAY: BSK_BE3C_MIG: BioMAP Diversity Plus: BE3C Assay for Monokine induced gamma interferon (MIG) Biomarker Activity (AID 2283035)
# TEST_CONDITIONS: primary human bronchial epithelial cells; actives raise or lower the signal
The source made the active and inactive calls. The calls were made as follows: active = hit-call score of the fitted dose curve at least 0.9, where 1 is the maximum; inactive = score below 0.9.
Possible outcomes: active, inactive

{"COMPOUND": "O=P(O)(O)CCCl", "GROUP_LABEL": "inactive"}
{"COMPOUND": "CCC(C)n1c(=O)[nH]c(C)c(Br)c1=O (stereo not given)", "GROUP_LABEL": "inactive"}
{"COMPOUND": "COCc1cnc(C2=NC(C)(C(C)C)C(=O)N2)c(C(=O)O)c1 (stereo not given)", "GROUP_LABEL": "inactive"}
{"COMPOUND": "O=C1C2CC=CCC2C(=O)N1SC(Cl)(Cl)Cl (stereo not given)", "GROUP_LABEL": "active"}
{"COMPOUND": "CS(=O)(=O)c1ccc(C(=O)C2C(=O)CCCC2=O)c([N+](=O)[O-])c1", "GROUP_LABEL": "inactive"}
{"COMPOUND": "CS(=O)(=O)c1cc(C(F)(F)F)ccc1C(=O)c1cnoc1C1CC1", "GROUP_LABEL": "inactive"}
{"COMPOUND": "CNC(=O)Oc1cccc2ccccc12", "GROUP_LABEL": "inactive"}
{"COMPOUND": "CC(C)=CC1C(C(=O)OCc2coc(Cc3ccccc3)c2)C1(C)C (stereo not given)", "GROUP_LABEL": "inactive"}
{"COMPOUND": "COP(=O)(OC)O/C(C)=C/C(=O)N(C)C", "GROUP_LABEL": "inactive"}
{"COMPOUND": "CSC(=O)c1c(C(F)F)nc(C(F)(F)F)c(C(=O)SC)c1CC(C)C", "GROUP_LABEL": "inactive"}
